Molecular target: T1, recombinant cynomolgus MerTK extracellular domain (cynomolgus monkey, UniProt Q12866 21-505 (human entry))
T1 construct: also called cynoMerTK; cyno MerTK; not shown: PolyHis tag or TEVS/Thrombin/murine IgG2a Fc tag
T1 chain: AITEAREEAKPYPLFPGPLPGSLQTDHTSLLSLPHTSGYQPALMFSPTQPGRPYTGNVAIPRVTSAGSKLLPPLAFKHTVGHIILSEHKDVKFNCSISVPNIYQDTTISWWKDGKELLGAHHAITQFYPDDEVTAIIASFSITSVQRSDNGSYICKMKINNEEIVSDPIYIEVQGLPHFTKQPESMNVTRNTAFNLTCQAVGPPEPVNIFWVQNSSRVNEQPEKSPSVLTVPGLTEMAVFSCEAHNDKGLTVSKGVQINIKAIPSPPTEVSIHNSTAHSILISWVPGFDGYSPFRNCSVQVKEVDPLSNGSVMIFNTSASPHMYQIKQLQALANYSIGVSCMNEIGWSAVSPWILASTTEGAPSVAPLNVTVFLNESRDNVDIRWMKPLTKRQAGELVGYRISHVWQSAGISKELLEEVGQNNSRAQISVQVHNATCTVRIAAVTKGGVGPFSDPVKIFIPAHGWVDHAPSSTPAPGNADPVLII
Assay: SPR (Carterra LSA), antibody immobilized, MerTK ECD as analyte; estimate, fits not ideal for a 1:1 model
PROPERTY_MEASURED: pKd
API: returns pKd as number; meaning -log10 of concentration in mol/L.

Lab book: pKd of bivalent anti-MerTK antibody MTK-33.11 (full IgG) (antibody, V domains shown) VH: QVQLVQSGAEVKKPGASVKVSCKASGYTFTSYWMHWVRQAPGQGLEWIGVIDPSDNYINYNQKFQGRVTMTRDTSTSTVYMELSSLRSEDTAVYYCAREAWTRGYFDYWGQGTLVTVSS VL: DIQMTQSPSSLSASVGDRVTITCQASRSVRNTVAWYQQKPGKAPKLLIYYASNRYTGVPSRFSGSGSGTDFTFTISSLQPEDIATYYCQQDYRSPFTFGQGTKLEIKR noted as 8.70
